Where do these numbers come from? They come from ChEMBL document CHEMBL1759846.

Measurement Protocol: Volume of distribution at steady state in Wistar rat at 10 mg/kg, po and 2 mg/kg, iv
Assay type: ADME, organism-based
Condition Info: in vivo, read-out: Vdss
Endpoint Name: Vd (L/kg)

CC(C)CNCc1c(C(=O)N[C@@H]2CCC[C@H](O)C2)noc1-c1ccc(C(F)(F)F)cc1	7.6

A: CC(C)NCc1c(C(=O)N[C@@H]2CCC[C@H](O)C2)noc1-c1ccc(C(F)(F)F)cc1
B: CC(C)[C@H](CO)NCc1c(C(=O)N[C@@H]2CCC[C@H](O)C2)noc1-c1ccc(C(F)(F)F)cc1
Exercise: Compare reported Vd values for A and B . Which is lower? I would appreciate it if you answered with the label of your choice.
Solution: B

----------
Measurement Protocol: Aqueous solubility of the compound in 0.05 M phosphate buffer at pH 7.4 by shake-flask method
Format: physicochemical
Endpoint Name: solubility thermodynamic (µg/mL)

Here is how some molecules turned out for solubility thermodynamic.
O=C(N[C@@H]1CCC[C@H](O)C1)c1noc(-c2ccc(C(F)(F)F)cc2)c1CNCC(O)C(F)(F)F (stereo partly drawn)	87
CC(C)[C@H](CO)NCc1c(C(=O)N[C@@H]2CCC[C@H](O)C2)noc1-c1ccc(C(F)(F)F)cc1	79
CC(C)NCc1c(C(=O)N[C@@H]2CCC[C@H](O)C2)noc1-c1ccc(C(F)(F)F)cc1	82
CCN(Cc1c(C(=O)N[C@@H]2CCC[C@H](O)C2)noc1-c1ccc(C(F)(F)F)cc1)C(C)C	85
O=C(N[C@@H]1CCC[C@H](O)C1)c1noc(-c2ccc(C(F)(F)F)cc2)c1CNC1CC1	21
NC(=O)C1CCN(Cc2c(C(=O)N[C@@H]3CCC[C@H](O)C3)noc2-c2ccc(C(F)(F)F)cc2)CC1	30

a: CN(Cc1c(C(=O)N[C@@H]2CCC[C@H](O)C2)noc1-c1ccc(C(F)(F)F)cc1)C[C@@H]1CCCO1
b: COCCNCc1c(C(=O)N[C@@H]2CCC[C@H](O)C2)noc1-c1ccc(C(F)(F)F)cc1
Exercise: Of a and b , which one carries the higher reported solubility thermodynamic? Kindly state the label of the option you pick.
Solution: b
(b: 80 µg/mL, a: 31 µg/mL)
